Tested on: Stenotrophomonas maltophilia
Assay: Antimicrobial activity against Stenotrophomonas maltophilia by broth dilution method
Assay type: functional

compound	MIC90
C[C@@H](O)[C@H]1C(=O)N2C(C(=O)O)=C(S[C@@H]3CN[C@H](C(=O)N(C)C)C3)[C@H](C)[C@H]12 [MEROPENEM]	> 32 µg/mL
CO/N=C(\C(=O)N[C@@H]1C(=O)N2C(C(=O)[O-])=C(C[N+]3(C)CCCC3)CS[C@H]12)c1csc(N)n1	> 32 µg/mL
C[C@@H](O)[C@H]1C(=O)N2C(C(=O)O)=C(SCCNC=N)C[C@H]12 [IMIPENEM ANHYDROUS]	> 32 µg/mL
